molecular target: human 5-HT1A receptor (Homo sapiens (Human), UniProt P08908); experiment: Test 1: agonistic activity for human 5-HT1A receptor (aequorin/Gα16 luminescence in CHO-K1 cell); conditions: CHO-K1 cell, aequorin luminescence
Sequence (P08908 whole entry): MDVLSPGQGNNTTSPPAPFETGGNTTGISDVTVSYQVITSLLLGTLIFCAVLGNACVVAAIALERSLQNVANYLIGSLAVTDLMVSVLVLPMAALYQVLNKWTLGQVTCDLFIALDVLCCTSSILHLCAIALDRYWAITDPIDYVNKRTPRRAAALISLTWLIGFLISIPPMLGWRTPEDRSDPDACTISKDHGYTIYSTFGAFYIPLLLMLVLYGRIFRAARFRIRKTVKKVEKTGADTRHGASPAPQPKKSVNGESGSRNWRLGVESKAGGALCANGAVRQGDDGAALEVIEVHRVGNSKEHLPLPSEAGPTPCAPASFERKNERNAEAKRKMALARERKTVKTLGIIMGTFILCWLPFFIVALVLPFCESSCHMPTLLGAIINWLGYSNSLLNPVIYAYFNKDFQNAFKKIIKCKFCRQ
pEC50: −log10 of the molar value.
metric-name: pEC50

The molecule O=C(NCCN1CC=C(c2cccc(C(F)(F)F)n2)CC1)C1CCOCC1 showed pEC50 equal to > 8.00

The molecule COCC1(C(=O)NCCN2CCC(c3cccc(C(F)(F)F)n3)CC2)CC1 showed pEC50 equal to > 8.00

The molecule Cc1cccc(C2=CCN(CCNC(=O)C3CCC(F)(F)CC3)CC2)n1 showed pEC50 equal to > 8.00
